Biological target: KV3.4 channels (Homo sapiens)
Construct: expressed in transfected cells; host or cells: CHO cells, transient transfection with Lipofectamine 2000; cDNAs provided by Professor Goldstein, University of Chicago
Sequence (Q03721 1-635): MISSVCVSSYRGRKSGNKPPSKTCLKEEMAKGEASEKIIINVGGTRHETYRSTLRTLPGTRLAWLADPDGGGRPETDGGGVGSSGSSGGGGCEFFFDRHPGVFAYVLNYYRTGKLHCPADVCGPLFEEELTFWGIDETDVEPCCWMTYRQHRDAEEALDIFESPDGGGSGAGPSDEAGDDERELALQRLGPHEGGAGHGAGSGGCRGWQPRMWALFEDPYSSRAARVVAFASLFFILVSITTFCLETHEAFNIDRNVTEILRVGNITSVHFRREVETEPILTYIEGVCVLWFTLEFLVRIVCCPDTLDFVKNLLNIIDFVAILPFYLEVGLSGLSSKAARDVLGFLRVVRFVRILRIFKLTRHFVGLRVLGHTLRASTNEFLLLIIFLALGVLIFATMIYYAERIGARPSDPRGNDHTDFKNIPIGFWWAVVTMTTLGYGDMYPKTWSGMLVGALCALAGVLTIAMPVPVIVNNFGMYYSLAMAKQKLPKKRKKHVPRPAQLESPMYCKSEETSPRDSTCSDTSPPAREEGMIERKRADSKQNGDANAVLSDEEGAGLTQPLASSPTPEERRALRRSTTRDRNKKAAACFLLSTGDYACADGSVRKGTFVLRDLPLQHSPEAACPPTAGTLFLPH
Sequence (Q9Y6H6 1-103 partner): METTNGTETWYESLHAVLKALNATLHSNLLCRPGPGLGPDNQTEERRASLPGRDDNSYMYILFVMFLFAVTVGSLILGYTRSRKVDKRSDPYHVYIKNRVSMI
Test: Whole-cell patch clamp of Kv3.4 currents in CHO cells transiently transfected with Kv3.4/MiRP2
Type: cell-based
Conditions: CHO cells transiently transfected with KV3.4/MiRP2; inhibitory dose-response curve, % of inhibition normalized to controls
Ends that are not written are not given here.
measured_endpoint: IC50 (nM)
Reply numerically in nM, unit not repeated.

Give the measured IC50 of AAPAFASG [BDS-I[1-8]] .
75
